Values from patent US20110286916A1

The reader will find reported MFI values listed item by item below.
Biological target: T1, human full-length Notch1 with C-terminal FLAG tag, stably expressed on 293 FlpIn (TREx) cells (human, UniProt P46531 19-2555)
T1 construct: tetracycline/doxycycline-induced expression from pcDNA5/FRT/TO-HN1+FLAG; also called hN1; 293_N1
Assay: FACS, hN1 293 cells, MFI grade (++ 101-500)

{"BINDER": "WC-155 (antibody, human IgG1, lambda, V domains shown, also called N1wc155; hN1wc-155) VH: EVQLVQSGAEVKKPGASVKVSCKASGYNFTGYYMHWVRQAPGQGLEWMGWINPNSGGTNYAQKFQGRVTMTRDTSISTAYMELSRLRSDDTAVYYCATDSFDYWGRGTLVTVSS VL: QSVLTQPPSVSGAPGQRVTISCTGSSSNIGAGYDVLWYRQLPGTAPKLLIYGNTHRPSGVPDRFSGSNSGTSASLAITGLQAEDEADYYCQSYDSSLSGSVFGGGTKLTVLQ", "VALUE_REPORTED": "101 to 500 mfi"}
{"BINDER": "WC-173 (antibody, human IgG1, lambda, V domains shown, also called N1wc173; hN1wc-173) VH: EVQLVQSGAEVKKPGASVKVSCKASGYNFTGYYMHWVRQAPGQGLEWMGWINPNSGGTNYAQKFQGRVTMTRDTSISTAYMELSRLRSDDTAVYYCATDSFDYWGQGTTVTVSS VL: QPVLTQPPSASWTPGQRVTISCSGSSSNIGSNTVHWYRQFPGTAPQLLIYSNNQRPSGVPDRFSGSKSGTSASLAIRGLQSEDEADYYCAAWDDSLNGVVFGGGIKLTVLQ", "VALUE_REPORTED": "101 to 500 mfi"}
{"BINDER": "S3-094 (antibody, human IgG1, lambda, V domains shown, also called hN1S3-094; HN1S3-94) VH: EVQLVQSGAEVKKPGASVKVSCKASGYNFTGYYMHWVRQAPGQGLEWMGWINPNSGGTNYAQKFQGRVTMTRDTSISTAYMELSRLRSDDTAVYYCATDSFDYWGRGTMVTVSS VL: QSVLTQPPSASGTPGQRVTISCSGGSSNIGSNTVTWYQQLPGKAPKLLIYISDQRPSGVPDRFSGSKSGTSASLAIRGLQSEDEADYYCAAWDDSLNGAVFGTGTKVTVLQ", "VALUE_REPORTED": "101 to 500 mfi"}

// next entry
input: Entry S3-009 (antibody, human IgG1, lambda, V domains shown, also called hN1S3-009; HN1S3-9) VH: EVQLVQSGAEVKKPGASVKVSCKASGYNFTGYYMHWVRQAPGQGLEWMGWINPNSGGTNYAQKFQGRVTMTRDTSISTAYMELSRLRSDDTAVYYCATDSFDYWGQGTMVTVSS VL: SYVLTQPPSVSEAPRQRVTISCSGSSSNIGNNAVSWYQQLPGKAPKTLIYYDDLLSSGVSDRFSGSRSGTSASLAISGLQSEDEADYYCAAWDDSLNGVVFGGGTKLTVLQ has what MFI?
output: 101 to 500 mfi
